Test system: apomorphine-induced climbing
assay.protocol: Inhibition of apomorphine-induced climbing, climbing mice assay (antipsychotic activity)
Type: in vivo, CK-1 male mice
run.conditions: Mus musculus, ip, read-out: Antipsychotic Activity ED50
measurement.label: ED50 (mg/kg)
Respond with the bare value in mg/kg.

Retrieve ED50 measured for COc1ccccc1N1CCN(CCNC(=O)c2nsc3ccccc23)CC1.Cl.Cl and print it.
6.3

Answer with the recorded ED50 of CN(CCCCN1CCN(c2csc3cc(F)ccc23)CC1)C(=O)c1noc2ccccc12.Cl only.
5

Annotate the molecule CN(CCCCN1CCN(c2csc3cc(F)ccc23)CC1)C(=O)c1nsc2ccccc12.Cl with its measured ED50.
4.5

Consider the molecule O=C(CCCN1CCC(O)(c2ccc(Cl)cc2)CC1)c1ccc(F)cc1 [Haloperidol, reference compound] . State its measured ED50.
0.11

Consider the molecule Cl.O=C(NCCN1CCN(c2csc3cc(F)ccc23)CC1)c1noc2ccccc12 and give its recorded ED50.
4.9

Consider the molecule Cl.O=C(NCCCCN1CCN(c2nsc3ccccc23)CC1)c1nsc2ccccc12 . State its measured ED50.
8.3
